Data credit: the supplement of paper PMC9262897

# Tested on: E. coli TESEC Mtb DapB
# assayExplanation: growth (OD600 after 10 h); higher = more growth (less inhibition)
# conditionContext: arabinose induction (level): Low; compound 0.1 mM; raw OD600 reference: median of DMSO wells 0.227, cell-free background 0.041
Where a name gives a salt, the structure may show the parent alone.
# growth per entry
measuredMetric: growth

O=c1[nH]c2ccccc2n1CCCN1CCC(n2c(=O)[nH]c3cc(Cl)ccc32)CC1    0.152
C#C[C@]1(O)CC[C@H]2[C@@H]3CCC4=CC(=O)CCC4=C3C=C[C@@]21CC    0.212
CC(C)(N)Cc1ccccc1 [Phentermine hydrochloride]    0.233
C[C@]12COC(=O)C[C@@H]1CC[C@@H]1[C@@H]2CC[C@@]2(C)[C@H]1CC[C@]2(C)O    0.154
CCC1=C[C@H]2CN3CCc4c([nH]c5ccccc45)[C@](C(=O)OC)(C2)[C@H]13    0.174
O=P1(N(CCCl)CCCl)NCCCO1 (centres undefined) [Cyclophosphamide]    0.216
CNC(C)(C)Cc1ccccc1 [Mephentermine hemisulfate]    0.221
C=C1CC[C@@]2(O)[C@H]3Cc4ccc(O)c5c4[C@@]2(CCN3CC2CC2)[C@H]1O5 [Nalmefene hydrochloride]    0.226
NC(=O)C[S+]([O-])C(c1ccccc1)c1ccccc1 (centres undefined)    0.199
CC1C=CC=CCCC=CC=CC=CC=CC(OC2OC(C)C(O)C(N)C2O)CC2OC(O)(CC(O)C(O)CCC(O)CC(O)CC(O)CC(=O)OC(C)C(C)C1O)CC(O)C2C(=O)O (centres undefined)    0.269
O=c1[nH]c2ccccc2n1C1CCN(CCCC(c2ccc(F)cc2)c2ccc(F)cc2)CC1 [Pimozide]    0.227
Oc1ccc2c3c1O[C@H]1[C@@H](O)CC[C@@]4(O)[C@@H](C2)N(CC2CCC2)CC[C@]314 [Nalbuphine hydrochloride]    0.214
C[C@]12Cc3c[nH]nc3C[C@@H]1CC[C@@H]1[C@@H]2CC[C@@]2(C)[C@H]1CC[C@]2(C)O    0.193
CC(=O)O[C@H]1C[C@H](O[C@H]2[C@@H](O)C[C@H](O[C@H]3[C@@H](O)C[C@H](O[C@H]4CC[C@@]5(C)[C@H](CC[C@@H]6[C@@H]5C[C@@H](O)[C@]5(C)[C@@H](C7=CC(=O)OC7)CC[C@]65O)C4)O[C@@H]3C)O[C@@H]2C)O[C@H](C)[C@H]1O[C@@H]1O[C@H](CO)[C@@H](O)[C@H](O)[C@H]1O [Lanatoside C]    0.233
CNC(=O)Oc1ccc2c(c1)[C@]1(C)CCN(C)[C@@H]1N2C [Eserine hemisulfate salt]    0.206
S=C(NC1CCCCC1)N1CCC(c2cnc[nH]2)CC1 [Thioperamide maleate]    0.21
CCN(C(C)=O)c1cccc(-c2ccnc3c(C#N)cnn23)c1    0.201
CC(=O)NC1CCSC1=O (racemic)    0.242
CN1C(=O)CCS(=O)(=O)C1c1ccc(Cl)cc1 (centres undefined)    0.207
